Attribution: ChEMBL document CHEMBL1955851

- Test Summary: n-Octanol-water partition coefficient, log P of the compound by shake flask method
- Assay type: physicochemical
Endpoint Name: logP
Just the number, please.

Molecule: COc1cccc2c1C(=O)c1c(O)c3c(c(O)c1C2=O)C[C@@](O)(C(=O)CO)C[C@@H]3O[C@H]1C[C@H](N)[C@H](O)[C@H](C)O1 [DOXORUBICIN]
logP: 0.6

Next, consider the following molecule.
Given the entry "COc1cccc2c1C(=O)c1c(O)c3c(c(O)c1C2=O)C[C@@](O)(C(=O)CO)C[C@@H]3O[C@H]1C[C@H](NC(C)=O)[C@H](O)[C@H](C)O1" , report its measured logP.
1.18
